Please go through the items and note down their growth.
- System: SF-539 CNS
- procedure_text: NCI-60 one-dose screen, 48 h (100 = growth as untreated, 0 = no growth, -100 = all killed)
- condition_summary: 10 µM
Compounds without any hit were thinned out: in the full panel of roughly 83,000, 20% have a hit. Calls of active or inactive are those of the source. The calls were made as follows: active = growth percent below 10; inactive = the rest.

Recorded growth of "O=C(/C=C/c1ccc(Br)cc1)c1nc2ccccc2n1Cc1ccc(Br)cc1" , please. -60.2% (active)

Another compound to look at: "COc1cc2cc(C(=O)N3C[C@@H](CCl)c4c3cc(OC(=O)N3CCN(C)[C@@H]5CSSC[C@H]53)c3ccccc43)[nH]c2c(OC)c1OC" -96% (active)

What do you have for "O=C(/C=C/c1cccc(Br)c1)c1nc2ccccc2n1Cc1ccc(F)cc1" ? 8.26% (active)

What would you report for "COCCOCCOCCOc1ccc(-n2cc(CCCN(CCNc3ccnc4cc(Cl)ccc34)C(=O)CCC(=O)O[C@@H]3O[C@@H]4OC5(C)CC[C@H]6[C@H](C)CC[C@@H]([C@H]3C)[C@@]46OO5)nn2)cc1" ? 47.4% (inactive)

Same question, "C#CC[Se]C(=O)c1ccc(C(=O)[Se]CC#C)s1" this time 65.5% (inactive)

Field entry: "O=C(/C=C/c1cccc(Br)c1)c1nc2ccccc2n1Cc1ccc(Br)cc1" -66% (active)

Likewise for "CC[C@]12C=CCN3CC[C@@]4(c5ccc(OC)cc5N(C)[C@H]4[C@@](O)(C(=O)OC)[C@@H]1OC(=O)CCC[P+](c1ccc(F)cc1)(c1ccc(F)cc1)c1ccc(F)cc1)[C@@H]32" ? 24.2% (inactive)

Follow-up item: "CC[C@]12C=CCN3CC[C@@]4(c5ccc(OC)cc5N(C)[C@H]4[C@@](O)(C(=O)OC)[C@@H]1OC(=O)CCCC[P+](C1CCCCC1)(C1CCCCC1)C1CCCCC1)[C@@H]32" -93.9% (active)

Likewise for "COCCOCCOCCOc1ccc(-n2cc(-c3ccc(O[C@H]4O[C@@H]5OC6(C)CC[C@H]7[C@H](C)CC[C@@H]([C@H]4C)[C@@]57OO6)cc3)nn2)cc1" ? 47.6% (inactive)

What do you get for "C=CC[Se]C(=O)c1ccc(C(=O)[Se]CC=C)s1" ? -97% (active)

Can you handle "C#CC[Se]C(=O)c1ccc2n[se]nc2c1" next? 40.3% (inactive)

Check "O=C(/C=C/c1ccc(F)cc1)c1nc2ccccc2n1Cc1ccc(Br)cc1" too. -92.5% (active)

Field entry: "COc1ccc(/C=C/C(=O)c2nc3ccccc3n2Cc2ccc(Br)cc2)cc1" 78.3% (inactive)

Note, next up: "O=C(/C=C/c1ccc(Cl)cc1Cl)c1nc2ccccc2n1Cc1ccc(Br)cc1" 84% (inactive)

Now the same for "C=CCN=C([Se])NC(=O)c1ccc2c(c1)OCO2" 67.3% (inactive)

Note, next up: "COc1ccc2cc([C@H](C)C(=O)[Se]CCC#N)ccc2c1" -67.3% (active)

And the next one, "CC1=C(C=O)C2=C(C)C3(CC3)[C@@](C)(O)C(=O)C2=C1" ? -47.8% (active)

Same lookup for "CC[C@]12C=CCN3CC[C@@]4(c5ccc(OC)cc5N(C)[C@H]4[C@@](O)(C(=O)OC)[C@@H]1OC(=O)CCC[P+](C1CCCCC1)(C1CCCCC1)C1CCCCC1)[C@@H]32" , please. -86.5% (active)

Cited source for all entries: PubChem BioAssay (NCI)
